Target: T1, HA-GCN4 hAPRIL (amino acid residues 105-250) (human, UniProt O75888 105-250)
T1 construct: Bought (R&D Systems); also called HA-tagged GCN4 human APRIL; HA-GCN4-huAPRIL; not shown: N-terminal HA tag; GCN4 isoleucine zipper oligomerization domain
T1 sequence: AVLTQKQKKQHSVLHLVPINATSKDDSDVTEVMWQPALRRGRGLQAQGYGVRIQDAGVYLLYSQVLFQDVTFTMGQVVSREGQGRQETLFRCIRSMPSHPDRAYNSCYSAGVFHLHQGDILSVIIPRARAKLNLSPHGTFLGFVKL
Experiment: blocking ELISA; blocked: human APRIL binding to human TACI-Fc
Set-up: concentration or dose not given beside the values

{"columns": ["Binder", "Reading unit", "% Inhibition"],
 "data": [
  ["monoclonal antibody 3125 (antibody, mouse IgG2, V domains shown) VH: QVQLQQSGAELVRPGASVTLSCKASGYTFTDYEMHWVKQTPVHGLEWIGAIDPETGGTAYNQRFKGKAILTTDKSSITAYMELRSLTSEDSAVYYCTRWNDGDYWGQGTTLTVSS VL: DVVMTQTPLSLSVTIGQPASISCKSSQSLLYSNGKTYLNWFQQRPGQSPKRLMYQVSKLDPGIPDRFSGSGSETDFTLKISRVEAEDLGLYYCLQGTYYPYTFGGGTKLEIK", "%", 52],
  ["monoclonal antibody 2922 (antibody, mouse IgG2, V domains shown) VH: QVQLHQSGPELVKPGASVKLSCKTSGYTFTSYDVFWVKQRPGQGLEWIGWIYPRDSSTKYNEKFKGKATLTVDTSSSTAYMELHSLTSEDSAVYFCAKEGYDYDKRGFDYWGQGTTLTVSS VL: DIVLTQSPASLAVSLGQRAIISCKASQSVSFAGTNLMHWYQQRPGQQPKLLIYRASNLEPGVPTRFSGSGSRTDFTLNIHPVEEDDAATYYCQQSREYPWTFGGGTKLEIK", "%", 97],
  ["monoclonal antibody 2621 (antibody, mouse IgG2, V domains shown) VH: EVQLQQSGAELVRPGSSVKMSCKTSGYTFTSYGINWVKQRPGQGLEWIGYIYIGNGYAEYNERFKGKATLTSDTSSSTAYMQLSSLTSEDSAIYFCALYYPWFTYWGQGTLVTVSA VL: DIQMTQSPASLSASVGDSVTITCRASENIYSYLAWYQQKQGKSPQLLVYNAKTLAEGVPSRFSGSGSGTQFSLKINSLQPEDFGNYYCQHHYDTPFTFGGGTKLEIK", "%", 79]
]}
